Each record here notes measured growth.
System: RXF 393 renal
Experiment: NCI-60 one-dose screen, 48 h (100 = growth as untreated, 0 = no growth, -100 = all killed)
Conditions: 10 µM unless noted
The panel holds about 83,000 compounds, 20% with a hit somewhere; the sample as a whole holds those more often. Calls of active or inactive are those of the source. The calls were made as follows: active = growth percent below 10; inactive = the rest.

// solved cases for growth follow
{"MOLECULE": "O=C1COCCN1c1ccc(NCc2cn(Cc3ccc(F)cc3)c3ccccc23)cc1", "growth": "-3.08% (active)"}
{"MOLECULE": "Cn1cc(-c2noc(-c3cn(C)c4ncccc34)n2)c2cc(Cl)ccc21", "growth": "121% (inactive)"}

// below: growth requested for another molecule
The recorded growth for "Cc1cc(C)c(-c2cc(O)c(-c3c(C)cc(C)cc3C)cc2O)c(C)c1" is 18% (inactive)
